Each entry below carries its reported TGI.
Test system: UACC-257 melanoma
Experiment: NCI tumour cell line growth inhibition, 48 h
Write the value in µM as a bare number.

Some compounds with recorded TGI:
1. O=c1c2cc(F)ccc2sc2c(NCCCN3CCCC3)nc3ccccc3c12 | 3.98
2. COCCCN1C(=O)C2c3[nH]c4ccccc4c3C3CCC(C(C)(C)C)CC3C2C1=O (configuration not stated) | 79.4
3. Clc1ncc(C(Cl)(Cl)Cl)nc1-c1ccccc1 | 4.76
4. O=[N+]([O-])O.[NH-]C1CCCCC1[NH-].[NH-]C1CCCCC1[NH-].[NH-]C1CCCCC1[NH-].[OH-].[OH-].[OH-].[Pt+4].[Pt+4].[Pt+4] (configuration not stated) | 20.4

Here is another compound to look at.
Tell me measured TGI for COc1cc(C2c3cc4c(cc3[C@@H](Nc3cccc(O)c3)C3COC(=O)[C@H]23)OCO4)cc(OC)c1O (some centres not stated) please.
16.9

====

System: OVCAR-3 ovarian
Assay: NCI tumour cell line growth inhibition, 48 h
Where a SMILES comes first, the peptide text is derived from it. [ ]: non-standard residue; d: D form. The star is where a group is joined. Phe(4-NO2) = N[CH](Cc1ccc([N+](=O)[O-])cc1)C(=O)O; Boc = CC(C)(C)OC(=O)*; OtBu = CC(C)(C)O*
metric: TGI

1. O=C(O)c1ccccc1-c1ccccc1C(=O)c1ccccc1 | > 100 µM
2. COc1ccc(S(=O)(=O)NCCNc2nccc(-c3c(-c4ccccc4)nc4sccn34)n2)cc1 | > 100 µM
3. COc1cc2c(cc1OC)C1Cc3ccccc3CN1CCC2 (stereo not drawn) | > 100 µM
4. CCSc1nc(N)c2cnn(C)c2n1 | > 100 µM

Tell me measured TGI for `COc1cc2c(cc1OC)[C@H]1C(=O)c3cc4c(cc3[C@H]1N(C)C2=O)OCO4` please.
> 100 µM

Tell me measured TGI for COC(=O)C(Cc1ccc([N+](=O)[O-])cc1)NC(=O)C(CC(=O)OC(C)(C)C)NC(=O)OC(C)(C)C (stereo not drawn) (Boc-Asp(OtBu)-[Phe(4-NO2)]-OMe; configuration not given here) please.
> 100 µM

Tell me measured TGI for CN(Cc1nc2c(N)nc(N)nc2nc1N)c1ccc(C(=O)NC(CCC(=O)O)C(=O)O)cc1 (stereo not drawn) please.
> 100 µM

Tell me measured TGI for `COc1ccc(S(=O)(=O)Nc2ccc(-c3csc(N4C(=O)/C(=C/C=C\c5ccccc5)N=C4c4ccccc4)n3)cc2)cc1Cl` please.
> 100 µM

Tell me measured TGI for `C[C@H](NC(=O)CCC(F)(F)F)C(=O)N[C@@H]1C(=O)N(CCO)c2ncccc2-c2ccccc21` please.
> 100 µM

====

Test system: OVCAR-3 ovarian
Test: NCI tumour cell line growth inhibition, 48 h
Each entry below carries its reported TGI.

1) C=C1c2nc3ccccc3n2C=C(c2ccccc2)N1c1ccc(OC)cc1 | > 100 µM
2) CC1SC2(CCCCC2)N(NC(=O)c2[nH]c3ccc(F)cc3c2-c2ccccc2)C1=O (centres undefined) | > 100 µM
3) CN1C(=O)[C@@]2(C=CC3(CC2)OCCO3)c2ccccc21 | > 50 µM

Here is another compound to look at.
Tell me measured TGI for `C/C(=N\NC(=S)N1CCC(C2CCN(C(=S)N/N=C(\C)c3ccccn3)CC2)CC1)c1ccccn1` please.
> 100 µM
